test: AUC in rat at 14 mg/kg, po; format: ADME, organism-based; set-up: dose 14 mg/kg, route oral; conditions: plasma
Consider the following compounds; for each one, report its AUC.
Give bare numbers, in ng·h/mL.

N#Cc1ccccc1Cn1c(N2CCC[C@@H](N)C2)nccc1=O.O=C(O)C(F)(F)F :: 1200

Proceeding to the next compound to report its AUC.
Input line: // query AUC value for entry N#Cc1ccccc1Cn1c(N2CCC[C@@H](N)C2)ncc(F)c1=O.O=C(O)C(F)(F)F
Output line: 3800

====

experiment: Half life in rat at 11 mg/kg, po; type: ADME, organism-based; parameters: dose 11 mg/kg, route oral; conditions: in vivo
TEST_READOUT: half-life (h)
One number for each entry, in h.

Input line: Reported half-life for Cl.N#Cc1ccccc1Cn1c(N2CCC[C@@H](N)C2)ncc(Cl)c1=O : what is it?
Output line: 1.3

====

test: Volume of distribution at steady state in rat at 0.8 mg/kg, iv and 11 mg/kg, po; format: ADME, organism-based; conditions: in vivo, read-out: Vdss
TEST_READOUT: Vd (L/kg)
Numbers only, in L/kg.

Input line: What does the data say about its Vd? Entry: Cl.N#Cc1ccccc1Cn1c(N2CCC[C@@H](N)C2)ncc(Cl)c1=O
Output line: 3

====

test: Half life in dog at 1.8 mg/kg, po; type: ADME, organism-based, Canis lupus familiaris; parameters: dose 1.8 mg/kg, route oral; details: in vivo
TEST_READOUT: half-life (h)
One number for each entry, in h.

Input line: Value lookup for half-life; key = N#Cc1ccccc1Cn1c(N2CCC[C@@H](N)C2)nccc1=O.O=C(O)C(F)(F)F
Output line: 2.8

====

test: Half life in rat liver microsomes by LC/MS analysis; assay type: ADME, Microsome
Response field label takes class 1 when half-life is strictly below 0.3 h and class 0 in all other cases.

Record excerpt, results attached:
Cn1c(=O)cc(N2CCC[C@@H](N)C2)n(Cc2cc(F)ccc2Cl)c1=O :: class 0
Cn1c(=O)cc(N2CCC[C@@H](N)C2)n(Cc2cc(F)ccc2C#N)c1=O :: class 0

Input line: Confirm or reject: half-life of N#Cc1ccccc1Cn1c(N2CCC[C@@H](N)C2)ncc(Br)c1=O lies strictly below 0.3 h
Output line: class 0

Input line: How about CC#Cc1cnc(N2CCC[C@@H](N)C2)n(Cc2ccccc2C#N)c1=O ?
Output line: class 0

Input line: How about Cn1c(=O)cc(N2CCC[C@@H](N)C2)n(Cc2ccccc2Br)c1=O ?
Output line: class 0

====

test system: Macaca fascicularis; assay: Volume of distribution at steady state in monkey at 0.93 mg/kg, iv and 4.6 mg/kg, po; details: cynomolgus monkey, in vivo, read-out: Vdss
TEST_READOUT: Vd (L/kg)
Answers are plain numbers, in L/kg.

Input line: For the compound Cl.Cn1c(=O)cc(N2CCC[C@@H](N)C2)n(Cc2cc(F)ccc2C#N)c1=O , what Vd is on record?
Output line: 3.3

====

assay: AUC in dog at 2.5 mg/kg, po; format: ADME, organism-based, Canis lupus familiaris; parameters: dose 2.5 mg/kg, route oral; conditions: plasma
TEST_READOUT: AUC (ng·h/mL)
Answers are plain numbers, in ng·h/mL.

Input line: I'd like to know its AUC. The molecule in question is Cl.N#Cc1ccccc1Cn1c(N2CCC[C@@H](N)C2)ncc(Cl)c1=O
Output line: 8400

====

test: Oral bioavailability in rat at 14 mg/kg; assay type: ADME, organism-based; details: in vivo
Can you tell me bioavailability for the items I'm about to list?
One number for each entry, in %.

N#Cc1ccccc1Cn1c(N2CCC[C@@H](N)C2)ncc(F)c1=O.O=C(O)C(F)(F)F :: 73

Input line: # lookup: bioavailability of N#Cc1ccccc1Cn1c(N2CCC[C@@H](N)C2)nccc1=O.O=C(O)C(F)(F)F
Output line: 54

====

assay: Half life in dog at 1 mg/kg, iv; format: ADME, organism-based, Canis lupus familiaris; design: dose 1 mg/kg, route intravenous; settings: in vivo
TEST_READOUT: half-life (min)
One number for each entry, in min.

Input line: Entry Cl.N#Cc1ccccc1Cn1c(N2CCC[C@@H](N)C2)ncc(Br)c1=O : reported half-life = ?
Output line: 318

====

experiment: Oral bioavailability in rat at 10 mg/kg; format: ADME, organism-based; conditions: in vivo
TEST_READOUT: bioavailability (%)
Answers are plain numbers, in %.

Input line: // bioavailability lookup, key: Cl.N#Cc1ccccc1Cn1c(N2CCC[C@@H](N)C2)ncc(Br)c1=O
Output line: 74

====

experiment: AUC in rat at 10 mg/kg, po; assay type: ADME, organism-based; set-up: dose 10 mg/kg, route oral; settings: plasma
TEST_READOUT: AUC (ng·h/mL)
Numbers only, in ng·h/mL.

Input line: Please look up its AUC: Cl.N#Cc1ccccc1Cn1c(N2CCC[C@@H](N)C2)ncc(Br)c1=O
Output line: 2400

====

assay: AUC in monkey at 2.1 mg/kg, po; assay type: ADME, organism-based, Macaca mulatta; design: dose 2.1 mg/kg, route oral; conditions: rhesus monkey, plasma
TEST_READOUT: AUC (ng·h/mL)
Numbers only, in ng·h/mL.

Input line: I would be grateful if you could share the reported AUC for N#Cc1ccccc1Cn1c(N2CCC[C@@H](N)C2)ncc(F)c1=O.O=C(O)C(O)C(O)C(=O)O [TARTARATE] .
Output line: 3100

====

test: Half life in dog at 2.7 mg/kg, po; format: ADME, organism-based, Canis lupus familiaris; set-up: dose 2.7 mg/kg, route oral; conditions: in vivo
TEST_READOUT: half-life (h)
Answers are plain numbers, in h.

Cl.N#Cc1ccccc1Cn1c(N2CCC[C@@H](N)C2)ncc(F)c1=O :: 4.5

Input line: Data request, read-out half-life, for Cn1c(=O)cc(N2CCC[C@@H](N)C2)n(Cc2cc(F)ccc2C#N)c1=O.O=C(O)C(F)(F)F
Output line: 4.8

====

assay: Half life in rat liver microsomes by LC/MS analysis; type: ADME, Microsome
TEST_READOUT: half-life

Please review the entries below; each comes with its answer.
N#Cc1ccccc1Cn1c(N2CCC[C@@H](N)C2)ncc(-c2ccccc2)c1=O :: 1 min
Cn1c(=O)cc(N2CCC[C@@H](N)C2)n(Cc2cc(F)ccc2Br)c1=O :: 16 min
N#Cc1ccc(F)cc1Cn1c(N2CCC[C@@H](N)C2)ncc(Cl)c1=O :: 122 min
N#Cc1ccccc1Cn1c(N2CCC[C@@H](N)C2)ncc(C#CCO)c1=O :: > 200 min
N#Cc1ccccc1Cn1c(N2CCC[C@@H](N)C2)nc2c(c1=O)CCCC2 :: 6 min

--- query ---
Input line: Query: half-life; subject: N#Cc1ccccc1Cn1c(N2CCC[C@@H](N)C2)ncc(F)c1=O
Output line: > 200 min
